Origin of values: patent US20240043568A1

- system-name: T1, human GPC3 on cells (human, UniProt P51654 25-563)
- T1 construct: whole, on cells; One molecule is used for both CHO-hGPC3 transfectants and GPC3+ HepG2 cells; The assay field names the cell; also called CHO-hGPC3 (clone 2B10); CHO-human GPC3
- measurement-description: flow cytometry, CHO-human GPC3 cells
// EC50 lookup, one value per entry

# binder, unit-descriptor, EC50
rows = [
    ("39G4 (antibody, V domains shown, Chimeric human IgG1) VH: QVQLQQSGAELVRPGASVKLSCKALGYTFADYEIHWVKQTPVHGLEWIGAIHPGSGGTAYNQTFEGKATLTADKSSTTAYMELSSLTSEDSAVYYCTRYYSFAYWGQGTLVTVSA VL: DVVVTQTPLSLPVSLGDQASISCRSSQSLVHSNGNTYLHWYLQKPGQSPKLLIYKVSNRFSGVPDRFSGSGSGTDFTLKISRVEAEDLGVYFCSQSTHVPTFGGGTKLEIK", "nM", 2.79),
    ("49G8 (antibody, V domains shown, Chimeric human IgG1; also called 49G8 chimeric antibody; Mab 49G8) VH: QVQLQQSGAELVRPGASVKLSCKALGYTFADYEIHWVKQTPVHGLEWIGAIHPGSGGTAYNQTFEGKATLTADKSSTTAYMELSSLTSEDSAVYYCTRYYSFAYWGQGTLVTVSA VL: DVVMTQTPLSLPVSLGDQASISCRSSQSIVHSNGNTYLEWYLQKPGQSPKLLIYKVSNRFSGVPDRFSGSGSGTDFTLKISRVEAEDLGVYFCLQVTHVPLTFGAGTKLELK", "nM", 1.18),
]
